Entries and their viscosity values follow.
settings: 318.15 K; 101.33 kPa; Liquid; Cone and plate viscometry

Compound	viscosity, mPa·s
CCCC[P+](CC)(CC)CC.Cc1ncc([N+](=O)[O-])[n-]1 [butyltriethylphosphonium 2-methyl-5-nitroimidazolide]	115
CCCCCCn1cc[n+](C)c1.O=[N+]([O-])c1cn[n-]c1 [1-hexyl-3-methylimidazolium 4-nitropyrazolide]	102
CCCCCCCCCCCCCC[P+](CCCCCC)(CCCCCC)CCCCCC.O=S(=O)([N-]S(=O)(=O)C(F)(F)F)C(F)(F)F	115
CCCCCCCCCCCCCC[P+](CCCCCC)(CCCCCC)CCCCCC.Clc1nc[n-]c1Cl [trihexyl(tetradecyl)phosphonium 4,5-dichloroimidazolide]	234
CC[P+](CC)(CC)COCCOC.Cc1ncc([N+](=O)[O-])[n-]1	53
